# Method notes: mitochondrial membrane potential change in A549 cells, profiling panel, cell-based, JC-1 fluorescence, basal, 24 h, 100 nL (AID 1138);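 further: A549 lung adenocarcinoma cells under basal conditions with no added stimulus; test concentration not given here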
# Condition info: higher = more signal
Endpoint label: z-score
Lab note: write the figure by itself, no unit.

Study these solved cases before continuing.
Given the molecule `[N-]=[N+]=NCc1ccccc1C[C@@]1(C(=O)N2CCCCC2)N=C(c2ccc(OCCCO)cc2)O[C@@H]1c1ccccc1` , what is its reported z-score? 0.144

What does the data say about its z-score? Entry: `CC(C)(C)OC(=O)CC[C@]1(C(=O)NCc2ccccc2)N=C(c2ccc(OCCCO)cc2)O[C@H]1c1ccccc1CN=[N+]=[N-]` 2.45

Which z-score reading was recorded for the molecule `COCCOC(=O)N1C(=O)[C@@]2(c3cc(C#CCC(C(=O)OC)C(=O)OC)ccc31)[C@H](C(=O)N1CCc3cc(OC)c(OC)cc3C1)[C@H]1C(=O)O[C@H](c3ccccc3)[C@H](c3ccccc3)N1[C@@H]2c1ccc(OCCO)cc1` ? -1.04

Data request, read-out z-score, for CN1C(=O)C2C=CC(C(O)COCc3ccccc3)N(N(c3ccccc3)c3ccccc3)C2C1=O (stereo not given) 1.12

Requested field: z-score. Item: `CC(C)N1C(=O)c2ccccc2[C@@H](C(=O)NC2CC2)[C@@H]1c1ccc(CO)cc1` 1.04

---
# get_value(readout='z-score', item= `COC(=O)[C@@]1(Cc2ccc(F)cc2)[C@H]2c3cc(C(=O)N(C)C)n(CCc4ccc(O)c(OC)c4)c3C[C@H]2CN1C(=O)c1ccccc1` ) 0.345

Value lookup for z-score; key = `COCCOC(=O)N1C(=O)[C@@]2(c3ccccc31)[C@H](C(=O)N1CCN(c3ncccn3)CC1)[C@H]1C(=O)O[C@H](c3ccccc3)[C@H](c3ccccc3)N1[C@@H]2c1ccc(O)cc1` -0.189

Record request: z-score value, item `COC(=O)[C@@]1(Cc2ccc(OC)cc2)[C@H]2c3cc(C(=O)N4CCCC4)n(Cc4c(-c5ccccc5)noc4C)c3C[C@H]2CN1C(=O)c1ccccc1` -0.608

What does the data say about its z-score? Entry: COc1cc(OC)c(C(O)C2C=CC3C(=O)N(c4ccccc4)C(=O)C3N2Nc2ccccc2)cc1Br (stereo not given) -0.267

Requested read-out: z-score. Entry: O=C1OCC=C[C@H]2OC34C=CCN(Cn5nnc6ccccc65)C(=O)[C@H]3N(CCCO)C(=O)[C@@H]4[C@@H]12 (stereo not given in full) -0.842

Recorded z-score of CCOC(=O)C1CCCCN1 (stereo not given) , please. -0.0223

Can you share its z-score? I mean this molecule: `COCCOC(=O)N1C(=O)[C@@]2(c3cc(C#CC4=CCCCC4)ccc31)[C@H](c1ccc(OCCO)cc1)N1[C@H](c3ccccc3)[C@H](c3ccccc3)OC(=O)[C@H]1[C@@H]2C(=O)NC[C@H](O)c1ccccc1` -1.4

I would be grateful if you could share the reported z-score for `O=C1c2ccccc2[C@](Cc2ccccc2I)(C(=O)NCC(F)(F)F)[C@H](c2ccc(CO)cc2)N1C1CCCCC1` . 2.17

I'd like to know its z-score. The molecule in question is `COC(=O)[C@@]1(Cc2ccc(OC)cc2)[C@H]2c3cc(C(=O)N(C)C)n(C[C@H](O)CO)c3C[C@H]2CN1C(=O)c1ccccc1` 0.193

Fill in: z-score of [N-]=[N+]=NCc1ccccc1[C@H]1OC(c2ccc(OCCCO)cc2)=N[C@@]1(CCS(=O)(=O)c1ccccc1)C(=O)NCC(O)CO (stereo not given in full) is ___ -1.22

Quick one: z-score for `C[N+](C)(C)CCCCCCNC(=O)[C@H]1C[C@H]2C(=O)N[C@@H](Cc3ccccc3)C(=O)N2[C@H]1c1ccc(O)cc1` ? 0.0402

# input molecule: CC(CO)N1C(=O)[C@@H]2[C@H]3C(=O)OCC=C[C@H]3OC23C=CCN(Cc2ccccc2)C(=O)[C@@H]13 (stereo not given in full) ; wanted: its z-score -0.376

What value of measured z-score is listed for `CCCCC=C[C@@H](NC(=O)c1ccc(-c2ccccc2)cc1)c1ccccc1` ? -0.428

Consider the molecule shown here: `C=C[C@@H](COC(C)=O)N(C(=O)OC(C)(C)C)S(=O)(=O)c1ccc(Br)cc1` What is its recorded z-score? 0.307

Value lookup for z-score; key = `[N-]=[N+]=NCc1ccccc1C[C@@]1(C(=O)NCc2ccccc2)N=C(c2ccc(OCCCO)cc2)O[C@@H]1c1ccccc1N=[N+]=[N-]` 1.12

###

# Method notes: binders of probe aFGF2 on microarray, primary screen, stem cell growth factor project, biochemical, small-molecule microarray, fluorescence 635/667 (AID 1067);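 further: measures binding of biotinylated aFGF2 protein to printed compounds on slides; z-score merges feature fluorescence and signal-to-noise across triplicate slides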
# Condition info: higher = more signal
Endpoint label: composite z-score
Please give only the number in your answer, with no unit.

Recorded results for 2 compounds are shown here.
What measured composite z-score goes with `COC(=O)c1cn(C[C@@H](Cc2ccccc2)NC(=O)N[C@H](CO)CCc2oc(C(C)=O)c(C(=O)OC)c2C(=O)OC)nn1` ? -0.0602

I have this compound here, `COc1ccc(NC(=O)O[C@H]2[C@H](OC(=O)Nc3ccccc3)[C@@H](OC(=O)Nc3ccccc3)[C@@H](OC)O[C@@H]2CO)cc1` , and I need its recorded composite z-score. -0.017

More entries:
Look up composite z-score for this compound: `COc1cc2c(cc1OC)CN(C(=O)[C@@H]1[C@H]3C(=O)O[C@H](c4ccccc4)[C@H](c4ccccc4)N3[C@H](c3ccc(OCCO)cc3)[C@@]13C(=O)Nc1ccccc13)CC2` 0.0373

###

Overview of reported composite z-score across a group of compounds:
# Tested on: Neuregulin-1 EGF-like domain
# Method notes: binders of neuregulin-1 EGF-like domain, primary screen, biochemical, small-molecule microarray, 635 nm fluorescence (AID 1081);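 further: binding of the protein to compounds printed on small-molecule microarray slides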
# Condition info: small-molecule microarray binding, higher = more signal
Give the figure only, with no unit attached.

Some compounds with known composite z-score results, for comparison:
Which composite z-score value is on record for O=C1NC(=O)C2C1C=CC(C(O)c1cccc3ccccc13)N2Nc1ccc(Cl)cc1Cl (configuration not stated) ? 1

Query: composite z-score; subject: `CCOC(=O)C1=CC[C@@H](c2ccccc2C(F)(F)F)N(S(=O)(=O)c2ccc(C)cc2)[C@H]1c1ccc(C#N)cc1` 1.25

I am curious: what composite z-score value has been reported for `[N-]=[N+]=Nc1ccccc1C[C@]1(C(=O)N2CCOCC2)N=C(c2ccc(OCCCO)cc2)O[C@H]1c1ccccc1` ? 1.23

Could you tell me which composite z-score is on file for `COCCOC(=O)N1C(=O)[C@@]2(c3cc(C#Cc4ccc(OC)cc4)ccc31)[C@H](c1ccc(O)cc1)N1[C@H](c3ccccc3)[C@H](c3ccccc3)OC(=O)[C@H]1[C@@H]2C(=O)N1CCCCCCC1` ? 0.341

Reported composite z-score for `CCOC(=O)C[C@H]1[C@H](OC(=O)c2cc3ccccc3oc2=O)[C@@H](NC(=O)Cc2ccc(OC)cc2)c2cc(OCCCO)ccc2N1C(=O)c1ccc2ccccc2n1` : what is it? 0.996

# lookup: composite z-score of `CCCC[C@@H]1C[C@H]1[C@@H](NC(=O)c1cccs1)c1ccc(C(F)(F)F)cc1` -0.743

We next turn to a different compound, shown below.
GET /values?readout=composite z-score&item= `CC(=O)NCCCC[C@@H]1NC(=O)[C@H]2C[C@@H](C(=O)NCCCC[N+](C)(C)C)[C@@H](c3cccc(OCCO)c3)N2C1=O` 1.14

###

# Method notes: small-molecule microarray binders of probe aWnt5a, primary screen, biochemical, biotinylated probe, 635/667 nm fluorescence (AID 1113);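 further: score merges 667 nm fluorescence intensity with signal-to-noise per printed feature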
# Condition info: higher = more signal
Endpoint label: composite z-score
Give a plain numeric answer without units written out.

Endpoint output: composite z-score of `C=CCOC(=O)[C@H]1[C@@H]2C(=O)O[C@@H](c3ccccc3)[C@@H](c3ccccc3)N2[C@@H](c2ccc(OCCOC(=O)[C@@H]3C[C@@H]4C(=O)N[C@@H](CCCCN(C)C)C(=O)N4[C@@H]3c3ccc(O)cc3)cc2)[C@]12C(=O)Nc1ccccc12` . Value? -0.124

What value of measured composite z-score is listed for `CO[C@H]1O[C@H](CO)[C@@H](OC(=O)Nc2ccccc2-c2ccccc2)[C@H](OC(=O)Nc2ccc3c(c2)OCO3)[C@H]1OC(=O)Nc1ccc2c(c1)OCO2` ? -0.0194

Returns the measured composite z-score for the input compound. Input: O=C1NC(=O)C2C1C=CC(C(O)CCc1ccccc1)N2Nc1ccc(Cl)cc1Cl (stereo not given) 0.539

I would be grateful if you could share the reported composite z-score for `CC(C)[Si](C#C[Si](C(C)C)(C(C)C)C(C)C)(O[C@H](C)c1cn([C@H](CO)Cc2ccccc2)nn1)C(C)C` . -0.0924

Which composite z-score is listed for `COCCOC(=O)N1C(=O)[C@@]2(c3cc(C#CC4=CCCCC4)ccc31)[C@H](c1ccc(O)cc1)N1[C@H](c3ccccc3)[C@H](c3ccccc3)OC(=O)[C@H]1[C@@H]2C(=O)N1CCN(c2ncccn2)CC1` ? -0.195
